Molecular target: T1, extracellular domain of human KLB expressed with C-terminal HA and hexahistidine tags (human, UniProt Q86Z14 1-996)
T1 construct: also called hKLB-HA-6His; hKLB-HA-6his
T1 sequence: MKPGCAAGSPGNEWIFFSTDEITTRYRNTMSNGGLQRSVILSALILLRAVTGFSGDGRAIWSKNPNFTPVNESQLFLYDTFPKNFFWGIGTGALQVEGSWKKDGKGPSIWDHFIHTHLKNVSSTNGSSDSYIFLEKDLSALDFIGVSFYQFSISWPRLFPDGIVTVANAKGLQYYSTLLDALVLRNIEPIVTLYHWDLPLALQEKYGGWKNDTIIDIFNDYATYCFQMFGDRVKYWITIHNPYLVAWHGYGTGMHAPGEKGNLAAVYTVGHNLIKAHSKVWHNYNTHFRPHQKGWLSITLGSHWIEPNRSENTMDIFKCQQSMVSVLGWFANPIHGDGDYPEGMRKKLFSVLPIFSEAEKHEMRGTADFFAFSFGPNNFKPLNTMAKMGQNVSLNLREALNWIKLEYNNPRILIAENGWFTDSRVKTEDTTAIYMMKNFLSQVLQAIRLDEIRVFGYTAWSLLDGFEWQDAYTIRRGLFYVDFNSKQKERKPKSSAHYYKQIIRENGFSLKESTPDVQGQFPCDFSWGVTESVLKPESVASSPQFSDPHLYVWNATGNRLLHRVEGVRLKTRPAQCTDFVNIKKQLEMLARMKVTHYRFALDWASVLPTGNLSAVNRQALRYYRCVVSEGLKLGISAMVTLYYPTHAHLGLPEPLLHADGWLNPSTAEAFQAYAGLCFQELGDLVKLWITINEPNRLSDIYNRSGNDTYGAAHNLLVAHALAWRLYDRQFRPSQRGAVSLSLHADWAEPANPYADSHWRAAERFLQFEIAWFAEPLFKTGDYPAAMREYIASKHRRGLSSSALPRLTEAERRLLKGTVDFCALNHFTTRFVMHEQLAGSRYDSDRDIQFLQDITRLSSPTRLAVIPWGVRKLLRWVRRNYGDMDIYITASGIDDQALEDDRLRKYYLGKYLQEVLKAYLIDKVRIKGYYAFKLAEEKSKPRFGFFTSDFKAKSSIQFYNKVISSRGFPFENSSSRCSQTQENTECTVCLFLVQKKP
Experiment: SPR, mAb captured, 25 C
Method: Equilibrium dissociation constants (KD values) for human KLB or human FGFR1c binding to purified anti-KLB/FGFR1c monoclonal antibodies were determined using a real-time surface plasmon resonance biosensor using a Biacore T-200 or 4000 instrument. […] Association of hKLB-HA-6His or hFGFR1c-V5-6His to the captured monoclonal antibody was monitored for 3.5 to 4 minutes and the dissociation of hKLB-HA-6His or hFGFR1c-V5-6His in HBST running buffer was monitored for 8-12 minutes. […]
Measured attribute: koff (s⁻¹)
Report the figure in s⁻¹ without appending any unit label.

Reference set, count: 2
H2aM8109N (antibody, V domains shown, mouse IgG2 Fc (H2aM prefix)) VH: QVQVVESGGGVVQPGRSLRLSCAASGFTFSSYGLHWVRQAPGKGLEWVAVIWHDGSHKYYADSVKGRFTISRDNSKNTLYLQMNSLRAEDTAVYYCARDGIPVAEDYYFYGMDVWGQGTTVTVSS VL: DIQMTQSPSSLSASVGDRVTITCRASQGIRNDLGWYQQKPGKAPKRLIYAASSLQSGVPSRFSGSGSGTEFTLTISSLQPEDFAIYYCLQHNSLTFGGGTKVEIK	0.000449
H4H8880P (antibody, V domains shown, human IgG4 Fc (H4H prefix)) VH: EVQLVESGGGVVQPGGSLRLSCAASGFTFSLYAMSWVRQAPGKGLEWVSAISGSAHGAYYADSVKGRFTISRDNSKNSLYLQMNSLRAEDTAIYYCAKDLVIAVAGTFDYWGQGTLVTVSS VL: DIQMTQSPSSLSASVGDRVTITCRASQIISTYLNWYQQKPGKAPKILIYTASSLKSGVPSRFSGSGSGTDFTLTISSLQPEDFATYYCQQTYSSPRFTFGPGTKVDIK	0.000287

Request: Which value of koff has been reported for H2aM8092N (antibody, V domains shown, mouse IgG2 Fc (H2aM prefix); also called H2M8092N) VH: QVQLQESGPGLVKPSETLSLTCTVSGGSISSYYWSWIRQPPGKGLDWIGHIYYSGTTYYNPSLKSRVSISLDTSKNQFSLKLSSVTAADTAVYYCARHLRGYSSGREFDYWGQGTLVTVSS VL: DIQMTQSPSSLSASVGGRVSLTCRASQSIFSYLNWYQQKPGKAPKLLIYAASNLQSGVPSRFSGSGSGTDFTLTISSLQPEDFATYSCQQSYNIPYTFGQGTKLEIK in the records?
Response: 5.56e-05

Request: Report koff for H4H8837P (antibody, V domains shown, human IgG4 Fc (H4H prefix)) VH: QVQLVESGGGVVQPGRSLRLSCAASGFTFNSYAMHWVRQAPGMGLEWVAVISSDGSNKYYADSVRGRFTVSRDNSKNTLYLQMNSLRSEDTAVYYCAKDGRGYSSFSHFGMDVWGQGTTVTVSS VL: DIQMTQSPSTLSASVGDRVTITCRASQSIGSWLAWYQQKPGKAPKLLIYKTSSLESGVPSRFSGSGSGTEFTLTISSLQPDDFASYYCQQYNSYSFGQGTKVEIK please.
Response: 0.000128

Request: For the binder H4H8878P (antibody, V domains shown, human IgG4 Fc (H4H prefix)) VH: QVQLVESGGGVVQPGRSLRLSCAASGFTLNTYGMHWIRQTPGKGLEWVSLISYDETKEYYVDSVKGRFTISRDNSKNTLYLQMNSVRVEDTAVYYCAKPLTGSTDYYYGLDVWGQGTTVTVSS VL: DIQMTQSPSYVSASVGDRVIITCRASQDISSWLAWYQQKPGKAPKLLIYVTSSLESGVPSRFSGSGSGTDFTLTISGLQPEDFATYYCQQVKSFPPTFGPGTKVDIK , what koff is on record?
Response: 0.000213

Request: // query koff value for entry H4H8881P (antibody, V domains shown, human IgG4 Fc (H4H prefix)) VH: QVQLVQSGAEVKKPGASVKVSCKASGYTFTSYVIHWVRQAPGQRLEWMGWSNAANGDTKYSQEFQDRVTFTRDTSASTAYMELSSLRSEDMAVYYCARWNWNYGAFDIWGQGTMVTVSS VL: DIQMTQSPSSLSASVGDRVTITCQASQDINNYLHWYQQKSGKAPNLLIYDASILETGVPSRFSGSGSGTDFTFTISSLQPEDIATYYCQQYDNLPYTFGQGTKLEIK
Response: 0.000178

Request: # query: koff of entry H2aM8093N (antibody, V domains shown, mouse IgG2 Fc (H2aM prefix)) VH: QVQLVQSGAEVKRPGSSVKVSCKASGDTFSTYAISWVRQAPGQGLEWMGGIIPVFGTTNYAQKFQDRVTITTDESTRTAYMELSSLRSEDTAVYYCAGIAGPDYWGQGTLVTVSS VL: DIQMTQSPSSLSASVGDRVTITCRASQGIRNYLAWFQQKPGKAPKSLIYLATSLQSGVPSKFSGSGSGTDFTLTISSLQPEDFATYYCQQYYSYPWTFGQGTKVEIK
Response: 9.8e-05
